All figures here come from PubChem BioAssay (NCI).

- System: CCRF-CEM leukemia
- METHOD_SUMMARY: NCI-60 one-dose screen, 48 h (100 = growth as untreated, 0 = no growth, -100 = all killed)
- EXPERIMENTAL_PARAMETERS: 10 µM unless noted
Compounds without any hit were thinned out: in the full panel of roughly 83,000, 20% have a hit.
ENDPOINT_NAME: growth (%)
The answer is to be given in %; state only the numeric part.

# example entries with known answers
>  <COMPOUND>
Nc1nc2c(c3ncccc13)C(c1cccc(Cl)c1)Cc1ncccc1-2 (centres undefined)

>  <growth [%]>
19.7

$$$$
>  <COMPOUND>
COc1ccc(/C=C2\COc3ccc(O)cc3C2=O)cc1

>  <growth [%]>
3.13

$$$$
>  <COMPOUND>
O=C(CCCCCNC(=O)c1cc(=O)c(O)co1)Nc1ccccc1

>  <growth [%]>
95.1

$$$$
>  <COMPOUND>
CCCCCCCCCCCCCCCCCCOc1ccccc1CC(=O)NCC[N+]1(C)CCCCC1

>  <growth [%]>
17.1

$$$$
>  <COMPOUND>
Cc1ccc2nc(/C(C#N)=C(/CCCO)NC(Cc3ccccc3)C(=O)OCc3ccccc3)[nH]c(=O)c2c1 (centres undefined)

>  <growth [%]>
164

$$$$
>  <COMPOUND>
CC1=CCC(OC(=O)C(C)(C)CC(O)(C(C)O)C(O)C2(C)C=CC(Cc3ccc(C(C)C)cc3)(C(C)C)CC2)(C(C)C)CC1 (centres undefined)

>  <growth [%]>
79.2

$$$$
>  <COMPOUND>
COc1cc(C2C(C(=O)OCc3ccccc3)=C(C)NC(C)=C2C(=O)OCc2ccccc2)cc(OC)c1OC

>  <growth [%]>
11.3

$$$$
>  <COMPOUND>
CCN(CC)CCN1C(=O)c2c(c(C)c3c(oc4ccc(O)cc43)c2C)C1=O

>  <growth [%]>
-14.7

$$$$

QUERY: Field: growth (CCRF-CEM leukemia). Entry: CCOC(=O)c1c(C)nc2ccccc2c1/C=C/c1cccs1
RESULT: 76.4

QUERY: Param readout = growth; param system = CCRF-CEM leukemia; param query = OCCNCCNC(Cc1ccc(Cl)cc1)c1ccccc1 (centres undefined) ; response: value
RESULT: 85.4

QUERY: Provide the documented growth with CCRF-CEM leukemia as the system for NS(=O)(=O)c1ccc(C(=O)NN2C(=O)c3c(Br)c(Br)c(Br)c(Br)c3C2=O)cc1
RESULT: 101

QUERY: Query for CCRF-CEM leukemia: what growth does the record show for CN1C(=O)/C(=C2\SC(=Nc3ccccc3)N(Nc3ccccc3)C2=O)c2ccccc21 ?
RESULT: 103

---

growth: recorded values
- System: U251 CNS
- METHOD_SUMMARY: NCI-60 one-dose screen, 48 h (100 = growth as untreated, 0 = no growth, -100 = all killed)
- EXPERIMENTAL_PARAMETERS: 10 µM unless noted
- Method: Growth inhibition of the U251 human tumor cell line is measured as a screen for anti-cancer activity. Cells are grown in 96 well plates and exposed to the test compound for 48 hours. Compounds are tested at a single concentration, which is 10^-5 M for most compounds. The reported endpoint is percent growth (GI% or GIPRCNT), where numbers from 0 - 100% represent growth inhibition, and numbers from -100% - 0 represent cell death. For example, a value of 40 represents 60% growth inhibition. […]
Compounds without any hit were thinned out: in the full panel of roughly 83,000, 20% have a hit.
# unit: % | format: bare number

Previously resolved entries follow.
>  <MOLECULE>
COc1cccc(Nc2ncnc3cc(NC(=O)CCl)ccc23)c1

>  <ASSAY_RESULT>
-99.2

$$$$
>  <MOLECULE>
O=C(CN1CCCCCC1)Nc1nc2ccc(NCc3ccc(Cl)cc3)cc2s1

>  <ASSAY_RESULT>
95.8

$$$$
>  <MOLECULE>
CC1(C)[C@@H](O[C@@H]2OC[C@@H](O[C@@H]3O[C@H](CO)[C@@H](O)[C@H](O)[C@H]3O[C@@H]3OC[C@@H](O)[C@H](O)[C@H]3O)[C@H](O)[C@H]2O[C@@H]2O[C@H](CO)[C@@H](O)[C@H](O)[C@H]2O)CC[C@]2(C)[C@H]3CC[C@]45OC[C@@]6(CC[C@](C)(C=O)C[C@H]64)[C@H](O)C[C@@]5(C)[C@]3(C)CC[C@@H]12

>  <ASSAY_RESULT>
-89.8

$$$$
>  <MOLECULE>
C=C1C(=O)O[C@H]2[C@H]1CC/C(COC(=O)CSCSCC(=O)OC/C1=C/CC[C@@]3(C)O[C@H]3[C@H]3OC(=O)C(=C)[C@@H]3CC1)=C\CC[C@@]1(C)O[C@@H]21

>  <ASSAY_RESULT>
10.8

$$$$

QUERY: Param readout= growth; system= U251 CNS; entry= CC1C(/C=N/NC(N)=S)C(C#N)(C#N)C1(C#N)C#N (stereo not given) ; returns value.
RESULT: 102

---

- Tested on: HOP-92 NSCLC
- METHOD_SUMMARY: NCI-60 one-dose screen, 48 h
- EXPERIMENTAL_PARAMETERS: 10 µM unless noted
This is part of a sample that, as a whole, favours compounds with a hit. Of some 83,000 tested, about 20% had one in any assay. The source made the active and inactive calls. How the source made its calls: active means growth percent below 10; inactive means the rest.
Pick one: 1 for active, -1 for inactive

>  <COMPOUND>
Cc1nc2cc(O)c(O)cc2cc1Oc1ccc(NC(=O)Nc2ccc(Cl)c(Cl)c2)cc1

>  <CAT>
-1

$$$$
>  <COMPOUND>
OCCNCCNC(Cc1ccc(Cl)cc1)c1ccccc1 (stereo not given)

>  <CAT>
-1

$$$$
>  <COMPOUND>
CN(C)c1ccc(-c2nc(-c3ccccc3)c(-c3ccccc3)[nH]2)cc1

>  <CAT>
-1

$$$$
>  <COMPOUND>
COc1ccc(/C=C/c2ccc3ccccc3n2)c(OC)c1

>  <CAT>
-1

$$$$

Now turn to the next compound.
QUERY: Check the results log: what was the call for COc1cc(Cl)c(C)cc1NC(=O)c1cc2ccccc2cc1O ?
RESULT: 1

---

- Tested on: OVCAR-5 ovarian
- METHOD_SUMMARY: NCI-60 one-dose screen, 48 h (100 = growth as untreated, 0 = no growth, -100 = all killed)
- EXPERIMENTAL_PARAMETERS: 10 µM unless noted
About 83,000 compounds went through this panel and 20% of them were active in at least one assay; those are over-represented in the sample as a whole. Active and inactive are the calls of the source. Rule for the calls: active = growth percent below 10; inactive = the rest.
Attribute: growth

Reference set, count: 3
>  <COMPOUND>
NC1(CO)COC(c2ccccc2)OC1 (centres undefined)

>  <growth>
94.9% (inactive)

$$$$
>  <COMPOUND>
CCO/C=N/C1=C(C#N)C(c2ccc(F)cc2)c2sc3c(F)cccc3c2O1 (centres undefined)

>  <growth>
83.4% (inactive)

$$$$
>  <COMPOUND>
COc1cc2c(c(OC)c1OC)C(=O)CC(c1cccc(NC(=O)c3ccc(C#N)cc3)c1)O2 (centres undefined)

>  <growth>
101% (inactive)

$$$$

Turning to the following compound.
QUERY: Consider the compound shown here: S=c1[nH]c(=S)c2c(-c3ccccc3)c(-c3ccccc3)oc2[nH]1 What is its recorded growth?
RESULT: 95.2% (inactive)

---

- Tested on: HCC-2998 colon
- METHOD_SUMMARY: NCI-60 one-dose screen, 48 h
- EXPERIMENTAL_PARAMETERS: 10 µM unless noted
The panel holds about 83,000 compounds, 20% with a hit somewhere; the sample as a whole holds those more often. Calls of active or inactive are those of the source. How the source made its calls: active means growth percent below 10; inactive means the rest.
Return exactly one item of active, inactive

Consider the worked cases shown below.
>  <COMPOUND>
CCCCCCCC/C=C\CCCCCCCCOc1ccc(CC(=O)NCC[N+]2(C)CCOCC2)cc1

>  <CAT>
inactive

$$$$
>  <COMPOUND>
COC(=O)c1nc(-c2ccccc2)oc1S(=O)(=O)NCC(c1ccc(Cl)cc1)N1CCOCC1 (configuration not stated)

>  <CAT>
inactive

$$$$
>  <COMPOUND>
CCC1S/C(=N\N=C(\C)c2cc3cc(Cl)ccc3o2)N(c2ccccc2)C1=O (configuration not stated)

>  <CAT>
inactive

$$$$
>  <COMPOUND>
C/C(=N\O)c1ccc(NC(=O)CSc2nnc(-c3cc(-c4ccc(S(C)(=O)=O)cc4)nc4ccccc34)n2-c2ccccc2)cc1

>  <CAT>
inactive

$$$$
>  <COMPOUND>
N#CC1=C(N)Oc2ccc3ccccc3c2C1c1ccc([N+](=O)[O-])cc1 (configuration not stated)

>  <CAT>
inactive

$$$$

QUERY: // param item: O=C1/C(=C/c2ccc(O)c(O)c2)COc2ccc(-c3ccccc3)cc21 ; yields the recorded call
RESULT: active

QUERY: What classification did Cc1ccc(Cl)cc1NC(=O)c1sc2nc3c(cc2c1N)C(=O)CCC3 end up with in this test?
RESULT: inactive
